The reported measurements were obtained from PubChem BioAssay (NCI).

Test system: A498 renal
Assay: NCI tumour cell line growth inhibition, 48 h
Reported TGI values are given for each entry in this list.
Readout: TGI (µM)

Compound	Readout	Unit label	Prefix operator	Measured result
CCCNCC(O)CNc1ccc(NCC(O)CNCCC)c2c1C(=O)c1ccccc1C2=O (centres undefined)	TGI	µM	=	23.5
CCOC(=O)C1=CNC(C(=O)OCC)C1c1cccn1-c1ccccc1 (centres undefined)	TGI	µM	>	100
O=C1CCCCC1C(O)(C(F)(F)F)C(F)(F)Cl (centres undefined)	TGI	µM	>	10
CC(C)OCc1cc(CN2CCN(c3cccc(Cl)c3)CC2)c(O)c2ncccc12	TGI	µM	=	8.25
CCCCN(CCCC)CC(C(=O)Nc1ccc([N+](=O)[O-])cc1[N+](=O)[O-])/C(C)=N\NC(=O)C[N+](C)(C)C (centres undefined)	TGI	µM	>	100
COc1cc(/C=C/C(=O)c2c(C)nc3ccccc3c2C)ccc1OCCCCOc1cc2c(cc1OC)C(=O)N1CCC[C@H]1C=N2	TGI	µM	=	0.779
O=C(O)C1=CN(c2ccncc2)C(c2ccco2)=CC1c1ccccc1[N+](=O)[O-] (centres undefined)	TGI	µM	=	28.7
COc1ccc2[nH]c3c4c(cc(-c5ccccc5)c3c2c1)C(=O)N(c1ccccc1)C4=O	TGI	µM	>	73.8
O=c1oc2ccc3ccccc3c2cc1-c1cn2c(n1)sc1ccccc12	TGI	µM	>	100

----------
The following compounds are shown together with reported TGI values.
System: KM12 colon
Test: NCI tumour cell line growth inhibition, 48 h

Compound	TGI
CN1C(=O)CN2C(Cl)(Cl)C2(c2ccccc2)c2cc(Cl)ccc21 (stereo unspecified)	> 100 µM
CCOC(=O)Nc1n[nH]nc1Cl	> 100 µM
CN(C)CC1CCCCCCCCCCCCC(CN(C)C)C1=O (stereo unspecified)	24 µM
C1=C(c2ccccc2)O[C@H](COCc2ccccc2)C(OCc2ccccc2)[C@@H]1OCc1ccccc1 (stereo partly specified)	> 10 µM
COC(=O)c1ccc(C)cc1C1CN=NC12Cc1cc(C)ccc1C2=O (stereo unspecified)	44.1 µM
COc1cc2c3c(n(CCCN4CCCNCC4)c(=O)c2cc1OC)-c1cc2c(cc1C3=O)OCO2	5.06 µM
O=C(CCc1ccc(O)c(O)c1)NCCc1cc(O)c(O)c(O)c1	> 100 µM
C/C(=C\CNc1ncnc2c1ncn2CCC(=O)OC(C)(C)C)CO	> 100 µM
O=C(c1cccs1)c1nc2cc(Cl)ccc2[n+]([O-])c1C(F)(F)F	> 100 µM
O=C1CCCCC1C(O)(C(F)(F)F)C(F)(F)Cl (stereo unspecified)	> 10 µM
c1ccc(-c2cn(-c3ccccc3)c(-c3ccccc3)n2)cc1	4.67 µM

----------
Test system: SNB-75 CNS
Assay: NCI tumour cell line growth inhibition, 48 h
Here the recorded TGI is given for each entry.
Readout: TGI (µM)

Molecule	Prefix operator	Measured result
Fc1ccc(C2SCc3nc4ccccc4n32)cc1F (stereo not drawn)	=	56.9
Cc1c2ccccc2c(C2C3C(=O)N(c4cccc5ccccc45)C(=O)C3ON2Cc2ccc(CC(N)=O)cc2)c2ccccc12 (stereo not drawn)	=	43.5
CC(=O)OCC1OC(OC(C)=O)C(Nc2ncc(-c3ccc(C)cc3)s2)C(OC(C)=O)C1OC(C)=O (stereo not drawn)	=	37.6
O=c1[nH]c(F)nc2c1ncn2C1OC(CO)C(O)C1O (stereo not drawn)	>	100
CCCCCCCc1cscc1-c1cscc1Br	=	87
NC(CO)c1ccc(OCc2ccccc2)cc1 (stereo not drawn)	=	98.9
CC(=O)N(CCN1C(=O)c2ccccc2C1=O)CCN1C(=O)c2ccccc2C1=O	>	100
NS(=O)(=O)c1ccc(N=C2C(=O)Nc3ccccc32)cc1	>	100
CC(C)OC(=O)NNc1cccc(Cl)c1	>	100
O=C1/C(=C\c2ccccc2)CN(C(=O)c2ccccc2)C/C1=C\c1ccccc1	=	22
CCCNCC(O)CNc1ccc(NCC(O)CNCCC)c2c1C(=O)c1ccccc1C2=O (stereo not drawn)	=	8.83
C#CCn1c(=O)c2cccnc2n(CC#C)c1=O	>	100
NC1=NC2=C(CCCC2)C(c2cccs2)S1 (stereo not drawn)	>	100
C#C[C@]1(O)[C@@H](CO)O[C@@H](n2ccc(N)nc2=O)[C@@H]1O	=	1.82
N#CCC1C2CC3C(C2=O)C13 (stereo not drawn)	>	100
COC(=O)c1ccc(C)cc1C1CN=NC12Cc1cc(C)ccc1C2=O (stereo not drawn)	>	68.1
O=C(N/C=C/C=C/Sc1ccccc1)OCc1ccccc1	=	42.4
N#Cc1c2ccccc2c2nnc3ccc(C(F)(F)F)cc3n12	>	100
N#Cc1c(-c2ccccc2)cc(-c2cccs2)c(C#N)c1N	=	55.2
CCOC(=O)C1=CNC(C(=O)OCC)C1c1cccn1-c1ccccc1 (stereo not drawn)	=	65.4
OCC1OC(n2cnc3c(SCc4ccccc4)ncnc32)C(O)C1O (stereo not drawn)	>	100
CCCCCCCCCCCCCCCC(=O)Nc1ccn(C2CCC(COP(=O)(O)OCC3OC(n4cc(F)c(=O)[nH]c4=O)CC3OC(C)=O)O2)c(=O)n1 (stereo not drawn)	>	67.1
c1ccc(-c2cc(-c3ccncc3)cc(-c3ccncc3)n2)cc1	=	99.1
